assay: Solubility measurement of Form I in solvent systems (HPLC); type: physicochemical; conditions: 25 °C, organic solvent or mixture, thermodynamic from solid; solvent Isobutyl acetate; stirred 24 h; HPLC; read-out: Solubility at 25° C.
Property Measured: solubility at 24 h (µg/mL)
Numeric answer only, unit µg/mL assumed.

Measured solubility at 24 h, CCN1C(=O)N(c2c(F)c(OC)cc(OC)c2F)Cc2cnc3[nH]c(CN4CCOCC4)cc3c21 [Form I] : 460

---

assay: Solubility measurement of Form I in solvent systems (HPLC); format: physicochemical; conditions: 50 °C, organic solvent or mixture, thermodynamic from solid; solvent MIBK; stirred 24 h; HPLC; read-out: Solubility at 50° C.
Property Measured: solubility at 24 h
Don't forget the unit after the number, please.

Note to self: solubility at 24 h recorded for CCN1C(=O)N(c2c(F)c(OC)cc(OC)c2F)Cc2cnc3[nH]c(CN4CCOCC4)cc3c21 [Form I] was 1120 µg/mL

---

assay: Solubility measurement of Form I in solvent systems (HPLC); assay type: physicochemical; details: 50 °C, organic solvent or mixture, thermodynamic from solid; solvent IPA/water (4/1); stirred 24 h; HPLC; read-out: Solubility at 50° C.
Property Measured: solubility at 24 h (mg/mL)
Write the answer as a number in mg/mL, unit excluded.

solubility at 24 h for CCN1C(=O)N(c2c(F)c(OC)cc(OC)c2F)Cc2cnc3[nH]c(CN4CCOCC4)cc3c21 [Form I] is 8.77

---

assay: Solubility measurement of Form I in solvent systems (HPLC); assay type: physicochemical; settings: 25 °C, organic solvent or mixture, thermodynamic from solid; solvent THF; stirred 24 h; HPLC; read-out: Solubility at 25° C.
Property Measured: solubility at 24 h (µg/mL)
Numeric answer only, unit µg/mL assumed.

So for CCN1C(=O)N(c2c(F)c(OC)cc(OC)c2F)Cc2cnc3[nH]c(CN4CCOCC4)cc3c21 [Form I] , the logged solubility at 24 h turned out to be 4110

---

assay: Solubility measurement of Form I in solvent systems (HPLC); assay type: physicochemical; conditions: 50 °C, organic solvent or mixture, thermodynamic from solid; solvent Toluene; stirred 24 h; HPLC; read-out: Solubility at 50° C.
Property Measured: solubility at 24 h (µg/mL)
Number in µg/mL, nothing else.

Record CCN1C(=O)N(c2c(F)c(OC)cc(OC)c2F)Cc2cnc3[nH]c(CN4CCOCC4)cc3c21 [Form I] , field solubility at 24 h: 820

---

assay: Solubility measurement of Form I in solvent systems (HPLC); type: physicochemical; settings: 25 °C, organic solvent or mixture, thermodynamic from solid; solvent MIBK; stirred 24 h; HPLC; read-out: Solubility at 25° C.
Property Measured: solubility at 24 h (µg/mL)
Number only, in µg/mL; omit the unit.

CCN1C(=O)N(c2c(F)c(OC)cc(OC)c2F)Cc2cnc3[nH]c(CN4CCOCC4)cc3c21 [Form VII] has a reported solubility at 24 h of 430

---

test: Solubility measurement of Form I in solvent systems (HPLC); assay type: physicochemical; conditions: 50 °C, organic solvent or mixture, thermodynamic from solid; solvent MEK; stirred 24 h; HPLC; read-out: Solubility at 50° C.
Property Measured: solubility at 24 h (µg/mL)
Report the figure in µg/mL without appending any unit label.

Value of solubility at 24 h reported for the molecule CCN1C(=O)N(c2c(F)c(OC)cc(OC)c2F)Cc2cnc3[nH]c(CN4CCOCC4)cc3c21 [Form I] is 3220

---

experiment: Solubility measurement of Form I in solvent systems (HPLC); assay type: physicochemical; conditions: 50 °C, organic solvent or mixture, thermodynamic from solid; solvent n-BuOH; stirred 24 h; HPLC; read-out: Solubility at 50° C.
Property Measured: solubility at 24 h (µg/mL)
Your answer should be a plain number; it is taken to be in µg/mL.

CCN1C(=O)N(c2c(F)c(OC)cc(OC)c2F)Cc2cnc3[nH]c(CN4CCOCC4)cc3c21 [Form I] has a reported solubility at 24 h of 1650

---

assay: Solubility measurement of Form I in solvent systems (HPLC); assay type: physicochemical; conditions: 25 °C, organic solvent or mixture, thermodynamic from solid; solvent EtOH; stirred 24 h; HPLC; read-out: Solubility at 25° C.
Property Measured: solubility at 24 h (µg/mL)
Give a bare numeral; the unit µg/mL is implied.

In plain terms, CCN1C(=O)N(c2c(F)c(OC)cc(OC)c2F)Cc2cnc3[nH]c(CN4CCOCC4)cc3c21 [Form I] has a documented solubility at 24 h of 970

---

experiment: Solubility measurement of Form I in solvent systems (HPLC); format: physicochemical; settings: 50 °C, organic solvent or mixture, thermodynamic from solid; solvent Acetone; stirred 24 h; HPLC; read-out: Solubility at 50° C.
Property Measured: solubility at 24 h (µg/mL)
API: value field is a number in µg/mL; no unit string.

Measured solubility at 24 h of CCN1C(=O)N(c2c(F)c(OC)cc(OC)c2F)Cc2cnc3[nH]c(CN4CCOCC4)cc3c21 [Form I] : 6670

---

assay: Solubility measurement of Form I in solvent systems (HPLC); type: physicochemical; conditions: 50 °C, organic solvent or mixture, thermodynamic from solid; solvent EtOH; stirred 24 h; HPLC; read-out: Solubility at 50° C.
Property Measured: solubility at 24 h

# solubility at 24 h (compound: CCN1C(=O)N(c2c(F)c(OC)cc(OC)c2F)Cc2cnc3[nH]c(CN4CCOCC4)cc3c21 [Form I] ) is 2730 µg/mL

---

test: Solubility measurement of Form I in solvent systems (HPLC); type: physicochemical; conditions: 25 °C, organic solvent or mixture, thermodynamic from solid; solvent Dichloromethane; stirred 24 h; HPLC; read-out: Solubility at 25° C.
Property Measured: solubility at 24 h

solubility at 24 h recorded for this compound, CCN1C(=O)N(c2c(F)c(OC)cc(OC)c2F)Cc2cnc3[nH]c(CN4CCOCC4)cc3c21 [Form II] , is > 50 mg/mL

---

assay: Solubility measurement of Form I in solvent systems (HPLC); assay type: physicochemical; details: 50 °C, organic solvent or mixture, thermodynamic from solid; solvent EtOAc; stirred 24 h; HPLC; read-out: Solubility at 50° C.
Property Measured: solubility at 24 h (µg/mL)
Expressed in µg/mL, but write only the number.

CCN1C(=O)N(c2c(F)c(OC)cc(OC)c2F)Cc2cnc3[nH]c(CN4CCOCC4)cc3c21 [Form I] yielded solubility at 24 h of 2260

---

assay: Solubility measurement of Form I in solvent systems (HPLC); format: physicochemical; settings: organic solvent or mixture, thermodynamic from solid; DMF (50° C.), DCM, chloroform, DMSO, DCM/MeOH (9/1) at 25° C. and 50° C.; read-out: completely soluble
Property Measured: solubility at 24 h

Looking up CCN1C(=O)N(c2c(F)c(OC)cc(OC)c2F)Cc2cnc3[nH]c(CN4CCOCC4)cc3c21 [Form I] , I see its solubility at 24 h listed as > 50 mg/mL

---

assay: Solubility measurement of Form I in solvent systems (HPLC); assay type: physicochemical; settings: 25 °C, organic solvent or mixture, thermodynamic from solid; solvent 1-Propanol; stirred 24 h; HPLC; read-out: Solubility at 25° C.
Property Measured: solubility at 24 h (µg/mL)
Kindly answer with a numeric value in µg/mL, unit omitted.

solubility at 24 h recorded for this compound, CCN1C(=O)N(c2c(F)c(OC)cc(OC)c2F)Cc2cnc3[nH]c(CN4CCOCC4)cc3c21 [Form I] , is 1160

---

assay: Solubility measurement of Form I in solvent systems (HPLC); format: physicochemical; conditions: 25 °C, organic solvent or mixture, thermodynamic from solid; solvent DCM/MeOH (9/1); stirred 24 h; HPLC; read-out: Solubility at 25° C.
Property Measured: solubility at 24 h

Reported solubility at 24 h of CCN1C(=O)N(c2c(F)c(OC)cc(OC)c2F)Cc2cnc3[nH]c(CN4CCOCC4)cc3c21 [Form I] : > 50 mg/mL

---

assay: Solubility measurement of Form I in solvent systems (HPLC); type: physicochemical; settings: 25 °C, organic solvent or mixture, thermodynamic from solid; solvent 1,4-Dioxane; stirred 24 h; HPLC; read-out: Solubility at 25° C.
Property Measured: solubility at 24 h (µg/mL)
Please give a number only; it is taken to be in µg/mL.

Looking up CCN1C(=O)N(c2c(F)c(OC)cc(OC)c2F)Cc2cnc3[nH]c(CN4CCOCC4)cc3c21 [Form III] , I found its solubility at 24 h recorded as 2230

---

experiment: Solubility measurement of Form I in solvent systems (HPLC); type: physicochemical; settings: 25 °C, organic solvent or mixture, thermodynamic from solid; solvent MTBE; stirred 24 h; HPLC; read-out: Solubility at 25° C.
Property Measured: solubility at 24 h (µg/mL)
Use µg/mL as the unit, but write only the number.

The compound identified as CCN1C(=O)N(c2c(F)c(OC)cc(OC)c2F)Cc2cnc3[nH]c(CN4CCOCC4)cc3c21 [Form IX] registered its solubility at 24 h at 50
